- TARGET OR SYSTEM: T1, apical domain of cynomolgus CD71 (cynomolgus, UniProt A0A2K5X958 189-383)
- T1 construct: domain: apical domain; also called Cyno apical domain
- T1 sequence (A0A2K5X958 entry or part of it): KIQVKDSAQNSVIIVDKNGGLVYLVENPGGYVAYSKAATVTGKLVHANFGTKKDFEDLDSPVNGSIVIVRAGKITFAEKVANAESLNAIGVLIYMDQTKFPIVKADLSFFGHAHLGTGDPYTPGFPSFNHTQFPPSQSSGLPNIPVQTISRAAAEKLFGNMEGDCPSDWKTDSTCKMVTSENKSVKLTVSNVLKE
- ASSAY PROCEDURE: primary ELISA; also: test concentration or dose not given here
MEASURED PARAMETER: RLU (RLU)
Report only the number, with the unit RLU understood.

CD71-binding FN3 domain of SEQ ID NO: 213 (designed binder) MSLPAPKNLVVSRVTEDSARLSWTAPDAAFDSFEIGYFENLYLGEAIVLTVPGSERSYDLTGLKPGTEYWVQIGGAKGGNWSAPLSAIFTT; 4.74e+06
CD71-binding FN3 domain of SEQ ID NO: 126 (designed binder) MSLPAPKNLVVSRVTEDSARLSWTAPDAVFDSFEIAYQELSLWGEAIVLTVPGSERSYDLTGLKPGTEYYVHIGGVKGGIWSSPLSAYFTT; 5.27e+06
CD71-binding FN3 domain of SEQ ID NO: 138 (designed binder) MSLPAPKNLVVSRVTEDSARLSWTAPDAAFDSFFIGYLEPQPPGEVIHLFVPGSERSYDLTGLKPGTEYNVTIQGVKGGFPSMPLSAIFTT; 6.59e+06

Shift focus to the following entry.
In: Fill in: RLU of CD71-binding FN3 domain of SEQ ID NO: 178 (designed binder) MGSLPAPKNLVVSRVTEDSARLSWTAPDAAFDSFFIGYLEPQPPGEAISLYVPGSERSYDLTGLKPGTEYNVTIQGVKGGFPSDPLVAHFTT is ___
Out: 5.99e+06
